# system.tested: T1, recombinant human CD3 epsilon/delta heterodimer (human, UniProt P07766 23-126; P04234 22-105)
# T1 construct: Recombinant heterodimer used as analyte in Octet; also called hCD3 E/D; human CD3E/D
# method.description: BLI (Octet), mAb 5 ug/mL on FAB2G sensor, hCD3 E/D 200-50 nM
assay.endpoint: kon (M⁻¹ s⁻¹)
One number for each entry, in M⁻¹ s⁻¹.

Some solved cases for reference:
binder | kon, M⁻¹ s⁻¹
ABL-CD3-85 (antibody, V domains shown, mAb purified from hybridoma; chimeric AlivaMab IgG (human VH, CH1 and upper hinge; mouse middle hinge, CH2, CH3; human light chain)) VH: EVQLVESGGGLVKPGGSLRLSCAASGFTFSSYSMNWVRQAPGKGLEWVSSISRRSGYIYYADSVKGRFTLSRDNAKKSLYLQMNSLRAEDTAVYYCARDLNWAFDYWGQGTLVTVSS VL: NFMLTQPHSVSESPGKTVTISCTRSSGSIASNYVQWYQQRPGSSPTTVIYEDNHRPSGVPDRFSGSIDSSSNSASLTIAGLKTEDEADYYCQSCDSSNVVFGGGTKLTVL | 247000
ABL-CD3-84 (antibody, V domains shown, mAb purified from hybridoma; chimeric AlivaMab IgG (human VH, CH1 and upper hinge; mouse middle hinge, CH2, CH3; human light chain)) VH: EVQLVESGGGLVKPGGSLRLSCAASGFTFSNFIMNWVRQAPGKGLEWVSSISGSSNYIYYADSVKGRFTISGDNAKNSLYLQMNSLRAEDTAVYYCAREKWVLLFFDYWGQGTLVTVSS VL: NFMLTQPHSVSESPGKTVTISCTRSSGSIASNYVQWYQQRPGSSPTTMIYEDTQRPSGVPDRFSGSIDSSSNSASLTISGLKTEDEADYYCQSYDSSNRVFGGGTKLTVL | 142000

Now turn to the next binder.
Task: Fill in: kon of ABL-CD3-83 (antibody, V domains shown, mAb purified from hybridoma; chimeric AlivaMab IgG (human VH, CH1 and upper hinge; mouse middle hinge, CH2, CH3; human light chain)) VH: EVQLVESGGGLVKPGGSLRLSCAASGFTFSSYSMNWVRQAPGKGLEWVSTISRSGGYIYDADSVKGRFTISRDNAKNSLYLQMNSLRAEDTAVYYCARDFNWTFDNWGQGTLVTVSS VL: NFMLTQPHSVSESPGKTVTISCTRSSGSIASNYVQWYQQRPGSSPTTVIYEDNQRPSGVPDRFSGSIDSSSNSASLTISGLKTEDEADYYCQSSDRSNVVFGGGTKLTVL is ___
Result: 401000
